- Target Under Test: HIV-integrase (Human immunodeficiency virus type 1 group M subtype B, UniProt P04585)
- Construct: 0.26 ng of recombinant integrase was incubated with the beads for 90 min at 37 C
- Test Description: HIV integrase SPA integration assay (biotin-labeled substrate DNA on streptavidin SPA beads, P33-labeled target DNA)
- Assay type: biochemical
- Condition Info: percent inhibition of HIV-integrase in the presence of 20 μM of compound
Result Type: inhibition at 20 µM (%)
Give the quantity in %, number only.

Examples from the recorded data:
INSERT INTO measurements (molecule, value_reported) VALUES
  ('CON(Cc1ccccc1OC(C)C)C(=O)C1=C(O)C(=O)N(C)C1', 99),
  ('CN(Cc1ccc(Cl)c(Cl)c1)C(=O)C1=C(O)C(=O)N(CC(C)(C)C)C1', 99.9),
  ('CN(Cc1ccc(Cl)c(Cl)c1)C(=O)C1=C(O)C(=O)N(CCC(=O)NC(Cc2cncn2C)C(=O)O)C1 (centres unmarked)', 99.9),
  ('CON(Cc1ccc(Cl)c(Cl)c1)C(=O)C1=C(O)C(=O)N(C)C1', 99.9);

For reference, reported inhibition at 20 µM for COC(=O)CCCN1CC(C(=O)N(C)Cc2ccc(Cl)c(Cl)c2)=C(O)C1=O stands at 99.9

For reference, reported inhibition at 20 µM for CN1CC(C(=O)N(Cc2ccc(Cl)cc2)Cc2ccc(Cl)c(Cl)c2)=C(O)C1=O stands at 99.8

For reference, reported inhibition at 20 µM for CN(Cc1ccc(Cl)c(Cl)c1)C(=O)C1=C(O)C(=O)N(CCN2CCCCC2)C1 stands at 99.9

For reference, reported inhibition at 20 µM for CN1CCN(CCN2CC(C(=O)N(C)Cc3ccc(Cl)c(Cl)c3)=C(O)C2=O)CC1 stands at 99.9

For reference, reported inhibition at 20 µM for CON(Cc1ccccc1C)C(=O)C1=C(O)C(=O)N(C)C1 stands at 88

For reference, reported inhibition at 20 µM for CN(Cc1ccc(F)cc1)C(=O)C1=C(O)C(=O)N(CCc2ccccc2F)C1 stands at 99.8

For reference, reported inhibition at 20 µM for CN(Cc1ccc(Cl)c(Cl)c1)C(=O)C1=C(O)C(=O)N(CC(=O)NCC(=O)NCCC(=O)NCC(=O)O)C1 stands at 99.9

For reference, reported inhibition at 20 µM for CN(Cc1ccc(Cl)c(Cl)c1)C(=O)C1=C(O)C(=O)N(CCCN2CCOCC2)C1 stands at 99.9

For reference, reported inhibition at 20 µM for CN(Cc1ccc(Cl)c(Cl)c1)C(=O)C1=C(O)C(=O)N(CCCC(=O)O)C1 stands at 99.9

For reference, reported inhibition at 20 µM for CON(Cc1ccc(C(=O)O)cc1)C(=O)C1=C(O)C(=O)N(C)C1 stands at 12

For reference, reported inhibition at 20 µM for CN(Cc1ccc(F)cc1)C(=O)C1=C(O)C(=O)N(CCc2ccncc2)C1 stands at 99.9

For reference, reported inhibition at 20 µM for CN1CC(C(=O)N(C)Cc2ccc(Cl)c(Cl)c2)=C(O)C1=O stands at 99.9

For reference, reported inhibition at 20 µM for CC(=O)NCCN1CC(C(=O)N(C)Cc2ccc(Cl)c(Cl)c2)=C(O)C1=O stands at 99.9

---

Result Type: melting point

Examples from the recorded data:
INSERT INTO measurements (molecule, value_reported) VALUES
  ('CON(Cc1ccc(F)cc1C(F)(F)F)C(=O)C1=C(O)C(=O)N(C)C1', '167 °C (dec.)'),
  ('CON(Cc1ccc(C)cc1)C(=O)C1=C(O)C(=O)N(C)C1 [Compound 59]', '150 to 152 °C'),
  ('CON(Cc1ccccc1F)C(=O)C1=C(O)C(=O)N(C)C1 [Compound 50]', '147 °C (dec.)'),
  ('CN1CC(C(=O)N(C)Cc2ccc(C(F)(F)F)cc2)=C(O)C1=O', '126 to 128 °C'),
  ('CON(Cc1ccc(C#N)cc1)C(=O)C1=C(O)C(=O)N(C)C1 [Compound 62]', '161 °C (dec.)');

For reference, reported melting point for CON(Cc1ccc(NC(C)=O)cc1)C(=O)C1=C(O)C(=O)N(C)C1 [Compound 63] stands at 110 °C

For reference, reported melting point for CN1CC(C(=O)N(Cc2ccc(F)cc2)OCC(=O)O)=C(O)C1=O [Compound 71] stands at 147 to 150 °C

For reference, reported melting point for CON(Cc1cccc(F)c1)C(=O)C1=C(O)C(=O)N(C)C1 [Compound 49] stands at 119 °C (dec.)

For reference, reported melting point for CN1CC(C(=O)N(C)CCCc2ccc(F)cc2)=C(O)C1=O stands at 129 °C (dec.)

For reference, reported melting point for CON(CCCc1ccc(Cl)c(Cl)c1)C(=O)C1=C(O)C(=O)N(C)C1 stands at 106 to 108 °C

---

- Target Under Test: HIV-integrase (Human immunodeficiency virus type 1 group M subtype B, UniProt P04585)
- Construct: 0.26 ng of recombinant integrase was incubated with the beads for 90 min at 37 C
- Test Description: HIV integrase SPA integration assay (biotin-labeled substrate DNA on streptavidin SPA beads, P33-labeled target DNA)
- Format: biochemical
- Condition Info: percent inhibition of HIV-integrase in the presence of 20 μM of compound
- Description: For each reaction, 5 pmole of biotin labeled substrate DNA was bound to 100 ug of Streptavidin coated PVT SPA beads (Amersham Pharmacia Biotech). 0.26 ng of recombinant integrase was incubated with the beads for 90 min at 37 C. Unbound enzyme was removed by washing the complex followed by addition of inhibitors and 0.1 fmol of P33 labeled target DNA. […] Samples were counted in TopCountNXT (Packard) and the CPM was used as a measure of integration. […]
Result Type: inhibition at 20 µM (%)
Give the quantity in %, number only.

INSERT INTO results (compound, value_reported) VALUES
  ('CCN1CCCC1CN1CC(C(=O)N(C)Cc2ccc(Cl)c(Cl)c2)=C(O)C1=O (stereo not drawn)', 99.9),
  ('CN(Cc1ccc(Cl)c(Cl)c1)C(=O)C1=C(O)C(=O)N(Cc2ccc(Cl)c(Cl)c2)C1', 99.9),
  ('CN(Cc1ccc(F)cc1)C(=O)C1=C(O)C(=O)N(CCc2ccc(Cl)cc2)C1', 99.9);

For reference, reported inhibition at 20 µM for CN(Cc1ccc(Cl)c(Cl)c1)C(=O)C1=C(O)C(=O)N(CCP(=O)(O)O)C1 stands at 99.9

For reference, reported inhibition at 20 µM for CN(Cc1ccc(Cl)c(Cl)c1)C(=O)C1=C(O)C(=O)N(Cc2cccs2)C1 stands at 99.9

For reference, reported inhibition at 20 µM for CON(Cc1ccc(C#N)cc1)C(=O)C1=C(O)C(=O)N(C)C1 stands at 97.7

---

Measured melting point values are reported for all entries that follow.

Examples from the recorded data:
INSERT INTO measurements (compound_string, value_reported) VALUES
  ('CON(Cc1ccc(F)c(C)c1)C(=O)C1=C(O)C(=O)N(C)C1', '160 to 164 °C'),
  ('COc1ccc(CN(OC)C(=O)C2=C(O)C(=O)N(C)C2)cc1', '135 to 137 °C'),
  ('CON(Cc1ccc(Cl)c(Cl)c1)C(=O)C1=C(O)C(=O)N(C)C1', '149 °C');

For reference, reported melting point for CON(Cc1ccc(C(=O)O)cc1)C(=O)C1=C(O)C(=O)N(C)C1 stands at 196 to 197 °C

For reference, reported melting point for CCON(Cc1ccc(F)cc1)C(=O)C1=C(O)C(=O)N(C)C1 stands at 113 to 114 °C

For reference, reported melting point for CN1CC(C(=O)N(Cc2ccc(F)cc2)OCC(=O)OC(C)(C)C)=C(O)C1=O stands at 128 to 130 °C

---

Measured melting point values are reported for all entries that follow.

Examples from the recorded data:
INSERT INTO measurements (compound_string, value_reported) VALUES
  ('CON(Cc1ccc(F)cc1)C(=O)C1=C(O)C(=O)N(C)C1', '125 °C (dec.)'),
  ('CN(C)C(=O)CON(Cc1ccc(F)cc1)C(=O)C1=C(O)C(=O)N(C)C1', '147 to 149 °C');

Proceed to the following item.
For reference, reported melting point for CN(Cc1ccc(Cl)c(Cl)c1)C(=O)C1=C(O)C(=O)N(CC(=O)O)C1 stands at 178 to 180 °C

---

Result Type: melting point

INSERT INTO assay_data (compound, result_type, value_reported) VALUES
  ('CON(Cc1ccccc1C)C(=O)C1=C(O)C(=O)N(C)C1 [Compound 56]', 'melting point', '153 to 154 °C'),
  ('CON(Cc1ccc(F)c(F)c1)C(=O)C1=C(O)C(=O)N(C)C1 [Compound 54]', 'melting point', '146 to 147 °C'),
  ('CON(Cc1ccc(C(F)(F)F)cc1)C(=O)C1=C(O)C(=O)N(CCN2CCOCC2)C1', 'melting point', '119 °C (dec.)'),
  ('CN(Cc1ccc(Cl)c(Cl)c1)C(=O)C1=C(O)C(=O)N(CCC(=O)O)C1 [Compound 18]', 'melting point', '183 to 184 °C'),
  ('CON(Cc1ccc(F)c(Br)c1)C(=O)C1=C(O)C(=O)N(C)C1 [Compound 57]', 'melting point', '154 to 157 °C (dec.)');

For reference, reported melting point for CN1CC(C(=O)N(Cc2ccc(F)cc2)c2ccc(Cl)c(Cl)c2)=C(O)C1=O [Compound 78] stands at 195 °C (dec.)

For reference, reported melting point for CON(Cc1ccc(C)c(F)c1)C(=O)C1=C(O)C(=O)N(C)C1 [Compound 65] stands at 145 °C

For reference, reported melting point for CON(Cc1ccc(Cl)cc1)C(=O)C1=C(O)C(=O)N(C)C1 [Compound 51] stands at 165 °C (dec.)
